- ASSAYED_SYSTEM: PAK2 (PAK65) (Homo sapiens, UniProt Q13177)
- Sequence (Q13177 whole entry): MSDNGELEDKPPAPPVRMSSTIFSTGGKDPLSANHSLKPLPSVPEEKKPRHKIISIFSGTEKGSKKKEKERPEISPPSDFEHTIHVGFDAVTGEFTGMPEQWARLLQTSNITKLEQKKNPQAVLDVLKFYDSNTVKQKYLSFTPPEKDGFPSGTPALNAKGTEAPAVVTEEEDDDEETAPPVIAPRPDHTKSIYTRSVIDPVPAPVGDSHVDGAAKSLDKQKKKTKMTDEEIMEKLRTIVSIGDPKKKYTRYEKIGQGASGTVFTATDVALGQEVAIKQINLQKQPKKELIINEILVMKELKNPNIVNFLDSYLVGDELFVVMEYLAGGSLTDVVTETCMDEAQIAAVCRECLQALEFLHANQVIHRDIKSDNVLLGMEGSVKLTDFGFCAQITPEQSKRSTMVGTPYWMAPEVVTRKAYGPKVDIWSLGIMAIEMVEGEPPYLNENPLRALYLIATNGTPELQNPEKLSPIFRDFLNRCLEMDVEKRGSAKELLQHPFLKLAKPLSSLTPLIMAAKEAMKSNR
- MEASUREMENT_DESCRIPTION: In vitro PAK inhibition assay (Z'-LYTE, SelectScreen), PAK2
- Format: biochemical
- PARTICULARS: read-out: PAK2 IC50
RECORDED_METRIC: IC50

stdin: For the molecule Cc1cncc(-c2ccc(-c3cc4cnc(N[C@H]5CCOC5)nc4n(CCCN(C)C)c3=O)c(Cl)c2)n1 [Example 102] , give its reported IC50.
stdout: < 50 nM

stdin: Return IC50 for the following molecule: CCn1c(=O)c(-c2ccc(-c3nccnc3C)cc2Cl)cc2cnc(NC3CCS(=O)(=O)CC3)nc21 [Example 75]
stdout: 50 to 500 nM

stdin: Give a short answer stating reported IC50 for CCn1c(=O)c(-c2ccc(-c3cncc(C)n3)cc2Cl)cc2cnc(N[C@H]3CC[C@H](N)CC3)nc21 [Example 85] .
stdout: < 50 nM

stdin: Name the recorded IC50 of the item CCn1c(=O)c(-c2ccc(-c3nccnc3C)cc2Cl)cc2cnc(NC3CCNC3)nc21 (stereo not drawn) [Example 83] in your answer.
stdout: 50 to 500 nM

stdin: Output IC50 of Cc1nccnc1-c1ccc(-c2cc3cnc(N[C@@H]4CCOC4)nc3n(Cc3ccncc3)c2=O)c(Cl)c1 [Example 124]
stdout: 50 to 500 nM

stdin: Using the record for Cc1cncc(-c2ccc(-c3cc4cnc(N[C@H]5CCOC5)nc4n(CCN)c3=O)c(Cl)c2)n1 [Example 100] , state its measured IC50.
stdout: < 50 nM

stdin: Determine from records and report IC50 for Cc1cncc(-c2ccc(-c3cc4cnc(N[C@@H]5CCOC5)nc4n([C@H]4CC[C@H](N)CC4)c3=O)c(Cl)c2)n1 [Example 109]
stdout: < 50 nM

stdin: Output measured IC50 for this item: CCn1c(=O)c(-c2ccc(-c3cncc(C)n3)cc2Cl)cc2cnc(NCCCOCCCN)nc21 [Example 129]
stdout: < 50 nM

stdin: Given CCn1c(=O)c(-c2ccc(-c3nccnc3C)cc2Cl)cc2cnc(NC3CCOC3)nc21 (stereo not drawn) [Example 15] , respond with its IC50.
stdout: 50 to 500 nM

stdin: Tell me IC50 reported for CCn1c(=O)c(-c2ccc(-c3cncc(C)n3)cc2Cl)cc2cnc(NCCCOCCN)nc21 [Example 133]
stdout: 50 to 500 nM

stdin: Report IC50 for CCn1c(=O)c(-c2ccc(-c3cncc(C)n3)cc2Cl)cc2cnc(N[C@H]3CCCNC3=O)nc21 [Example 69]
stdout: > 5000 nM

stdin: Look up IC50 of CCn1c(=O)c(-c2ccc(-c3cccnc3F)cc2Cl)cc2cnc(NC3CCOCC3)nc21 [Example 12] and report it.
stdout: 50 to 500 nM

stdin: Query IC50 for O=c1c(-c2ccc(-c3ccncn3)cc2Cl)cc2cnc(NC3CCOCC3)nc2n1Cc1ccccc1C(F)(F)F [Example 23]
stdout: 50 to 500 nM

stdin: Please give measured IC50 of the following entry: CCn1c(=O)c(-c2ccc(-c3noc(C)n3)cc2Cl)cc2cnc(N[C@@H]3CCOC3)nc21 [Example 54]
stdout: 50 to 500 nM

stdin: Return reported IC50. Input molecule: CCn1c(=O)c(-c2ccc(-c3nccnc3C)cc2Cl)cc2cnc(NC3CCNC(=O)C3)nc21 (stereo not drawn) [Example 33]
stdout: < 50 nM
